test: reduction of polyQ htt aggregates in cells – imaging, exon1htt(103Q)mCFP cells, high-content imaging, primary screen (AID 483); conditions: exon1htt(103Q)mCFP cell line, aggregate imaging, at 2 µM; stronger effect = higher value;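 note: compound exposure lasted 3 days before fixation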
REPORTED METRIC: inhibition of aggregation (%)
Answers are plain numbers, in %.

Example cases with answers are listed next.
CC(C)(C)n1nnnc1C(c1cccc(C#N)c1)N1CCC(Cc2ccccc2)CC1 (centres undefined)	30.1
Oc1cnc2ccccc2c1CN1CCOCC1	-24.9
C=CCSc1nnc(-c2ccccc2NC(C)=O)c(=O)[nH]1	8
COc1ccc(OCc2nc(N)nc(Nc3cccc(C)c3C)n2)cc1	-10.8
CCc1ccc(NC(=O)c2cc(-c3ccco3)on2)cc1	7.7

The following compounds each have a reported value; give each one's inhibition of aggregation.
1. O=C(CSc1nnc(-c2cccnc2)o1)Nc1ccccn1
2. CN(C)Cc1c(O)ccc2oc(Cc3ccccc3)cc12
3. O=C(O)C1C2CCC(O2)C1C(=O)Nc1cccc(F)c1 (centres undefined)
4. CC1CCCC(NC(=O)CN2CCN(Cc3ccc(Cl)cc3)C2=O)C1C (centres undefined)

Resp:
7.3
14.8
-0.8
-24.6

The following compounds each have a reported value; give each one's inhibition of aggregation.
1. CC(c1ccccc1)N1C(=O)c2ccc(C(=O)NCc3ccco3)cc2C1=O (centres undefined)
2. CC(CN1CCOCC1)(NS(=O)(=O)c1ccccc1)c1ccccc1 (centres undefined)
3. Cc1ccc(C2CC(c3cccc(Br)c3)Nc3nnnn32)cc1 (centres undefined)
4. CCCCCn1c(=O)[nH]c2cc(C(=O)NCCN3CCOCC3)ccc2c1=O
5. O=C1c2oc3ccccc3c(=O)c2C(c2ccccn2)N1Cc1ccccc1 (centres undefined)

Resp:
1: -0.8; 2: 10.4; 3: -4.9; 4: 18; 5: 1.8

The following compounds each have a reported value; give each one's inhibition of aggregation.
1. CCn1c(=S)sc2nc(C)sc21
2. CCCn1c(NC(=O)C2COc3ccccc3O2)nc2ccccc21 (centres undefined)
3. CC(C)CCNC(=O)NC(=O)CSc1nnc(COc2ccccc2Cl)o1
4. C=CCn1c(=O)/c(=C/c2ccc(O)cc2)s/c1=C(/C#N)c1nnc2n1CCCCC2
5. CC(C(=O)N1c2ccc(F)cc2CCC1C)N1C(=O)c2ccccc2C1=O (centres undefined)
6. COc1ccccc1C(=O)Nc1ccc(S(=O)(=O)N2CCOCC2)cc1

Resp:
[-4.4, -4.8, 13.9, 11.1, 1.1, 21.1]

----------
target: Voltage-gated potassium channel subunit beta-2 (Rattus norvegicus) (UniProt P62483); test: inhibitors of rat Kvbeta2 reductase activity – biochemical, NADPH fluorescence, primary screen (AID 622); settings: recombinant KvBeta, 4-cyanobenzaldehyde reduction, at 10 µM, stronger effect = higher value;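 note: slope of raw intensity against log time taken from 70 to 1610 s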
Sequence (P62483 whole entry, looked up): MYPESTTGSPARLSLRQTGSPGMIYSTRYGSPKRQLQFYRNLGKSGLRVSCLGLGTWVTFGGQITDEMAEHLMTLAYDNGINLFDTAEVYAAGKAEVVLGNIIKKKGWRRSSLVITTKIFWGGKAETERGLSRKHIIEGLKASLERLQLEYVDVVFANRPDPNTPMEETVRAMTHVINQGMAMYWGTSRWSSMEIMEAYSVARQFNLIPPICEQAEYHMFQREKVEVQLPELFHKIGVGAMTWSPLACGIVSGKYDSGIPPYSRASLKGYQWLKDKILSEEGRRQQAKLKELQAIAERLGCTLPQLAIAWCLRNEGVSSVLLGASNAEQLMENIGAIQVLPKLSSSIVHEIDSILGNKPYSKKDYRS
REPORTED METRIC: fluorescence slope
Numbers only.

Example cases with answers are listed next.
CC1CCN(S(=O)(=O)c2ccc(S(=O)(=O)NCC(=O)C(C)(C)C)cc2)CC1	-0.571
Cc1ccc(NC(=O)c2oc3ccc(S(=O)(=O)N4CCOCC4)cc3c2C)cc1C	-0.278
CC(C)CNC(=O)c1ccccc1NC(=O)CN(c1ccc2c(c1)OCCO2)S(C)(=O)=O	-0.574
CCn1c(SCC(=O)Nc2nnc(C)s2)nnc1-c1ccncc1	-0.301
CC(=O)OCC(=O)[C@@]1(O)CC[C@H]2[C@@H]3CCC4=CC(=O)C=C[C@]4(C)[C@H]3[C@@H](O)C[C@@]21C	-0.506
CC(=O)N(c1ccc(N(C(C)=O)S(=O)(=O)c2cccs2)cc1)S(=O)(=O)c1cccs1	-0.472
CCCn1nnnc1SCC(=O)c1ccc2c(c1)OCCO2	-0.441
Cc1cc(C(C)(C)C)cc(C)c1CC1=NCCN1	-0.464

The following compounds each have a reported value; give each one's fluorescence slope.
1. CCNc1nc(N2CCCCC2)nc(-n2nnc(C(=O)OCC)c2C)n1
2. COc1ccc(Cc2nc3ccc(S(N)(=O)=O)cc3[nH]2)cc1OC

Resp:
1. -0.613
2. -0.553

----------
test: endothelial E-selectin expression blockers – imaging, HUVEC, immunofluorescence, MLSMR starter and 10KST1 sets, primary screen (AID 487); conditions: HUVEC TNFalpha-induced E-selectin immunofluorescence imaging, at 2 µM; measured here: cell number, toxicity;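 note: 100% = median nuclei count of all wells on the same plate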
Record form. Attribute: nuclei count. Fill in for each entry.
Answers are plain numbers, in %.

Example cases with answers are listed next.
C=CCn1c(SCc2ccc3nonc3c2)nnc1-c1cccs1	92.9
CCn1cc(C(=O)N2CCCC2)c(=O)c2cc(S(=O)(=O)N3CCOCC3)ccc21	113
CN(CCOC(=O)c1cccc(Br)c1)C(C)(C)C	134
Cn1c(Cc2cccs2)nnc1SCC(=O)N1CCc2ccccc21	93.3
Cc1ccccc1S(=O)(=O)Cc1ccc(C(=O)NCc2cccnc2)o1	112
CC(=O)OC(C(=O)NCc1ccco1)c1cccnc1 (stereo not given)	135
CC(C)NC(=O)c1ccccc1NC(=O)c1ccccc1N(C)S(C)(=O)=O	101
Clc1cccc(-c2nn3c(Cn4cnc5ccccc54)nnc3s2)c1	130
O=C(OCC(=O)c1c[nH]c2ccccc12)C1=COCCO1	69.3
C=CCc1cc(C(=O)N2CCCCC2)ccc1O	118

The following molecules each have a reported value; give each one's nuclei count.
1. Nc1nc(-c2ccccc2Br)cs1
2. CC(C)C1N=C2c3ccccc3N=C(SCC(=O)NCCc3ccc(S(N)(=O)=O)cc3)N2C1=O (stereo not given)
3. CCOC(=O)c1nnn(CC(=O)Nc2cccc(OC)c2)c1C(=O)OCC
4. Cc1cc(NC(=O)COc2ncnc3sc(C)c(C)c23)no1
5. COc1cc2nc(C3CCC3)n(NC(=O)C3CCCC(OC)C3)c(=O)c2cc1OC (stereo not given)
6. COc1ccc(S(=O)(=O)n2ccnc2)c2cccnc12
7. O=C(CN1CCN(c2ncc(C(F)(F)F)cc2Cl)CC1)Nc1ccc2c(c1)OCO2
8. CCC(C)C(NC(=O)C1CCC(C)CC1)C(=O)NCc1cccnc1 (stereo not given)

Resp:
119
110
106
153
107
85.1
104
102

----------
assay: TLR3 IRF3 reporter activation blockers – cell-based, poly I:C stimulus, luciferase, 10K MLSCN set, primary screen (AID 602277); conditions: HEK293-TLR3 RL24 IRF3 luciferase reporter, at 10 µM
Activity calls are given as the source filed them.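 Rule for the calls: active = inhibition of the reporter signal at or above 50%; inactive = inhibition below 50%.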
The reply should name one outcome from t for active, f for inactive

Example results:
COc1cc(C2C3=C(CC(C)(C)CC3=O)Nc3c2c(=O)[nH]c(=O)n3Cc2ccccc2)ccc1O (stereo unspecified)	f
CCOc1ccc(CCNC(=O)CCc2nc(-c3ccc(OC)cc3)no2)cc1OCC	f
Cc1ccccc1NC(=O)C1CCN(c2cnccn2)CC1	f
COc1ccc(OCc2nc(N)nc(Nc3cccc(C)c3C)n2)cc1	f

Req: Hi, sorry to bother you, what did the test record for `Brc1ccc(-c2cn3cccnc3n2)cc1` ?
Resp: f

Req: Hi, sorry to bother you, what did the test record for `NS(=O)(=O)c1cc2c(cc1C(F)(F)F)NCNS2(=O)=O` ?
Resp: f

Req: Hi, sorry to bother you, what did the test record for CC(C)Cn1cc(C(=O)NCC2CCCO2)c2c3ccccc3n(C)c2c1=O (stereo unspecified) ?
Resp: f

Req: Hi, sorry to bother you, what did the test record for `COC(=O)c1ccc(COc2ncnc3c(Cl)cc(Cl)cc23)o1` ?
Resp: f

Req: Hi, sorry to bother you, what did the test record for COc1ccc(CC(NC(C)=O)C(=O)NC2CCN(C(=O)Nc3ccc(C#N)cc3)CC2)cc1OC (stereo unspecified) ?
Resp: f

Req: Hi, sorry to bother you, what did the test record for `CCn1c(COc2cccc3ccccc23)nnc1SCC(N)=O` ?
Resp: f

Req: Hi, sorry to bother you, what did the test record for Cn1nc(-c2ccc(C(=O)NCC3CCCO3)cc2)c2ccccc2c1=O (stereo unspecified) ?
Resp: f

Req: Hi, sorry to bother you, what did the test record for `CNC(=O)c1ccccc1NC(=O)c1c(O)c2c([nH]c1=O)CCCC2` ?
Resp: f

Req: Hi, sorry to bother you, what did the test record for `Cn1c(=O)oc2cc(S(=O)(=O)N3CCC(C(=O)Nc4ccc(OC(F)(F)F)cc4)CC3)ccc21` ?
Resp: f

Req: Hi, sorry to bother you, what did the test record for `CCN1CCN(C(=O)c2ccc3c(=O)n(CCC4=CCCCC4)c(=O)[nH]c3c2)CC1` ?
Resp: f

Req: Hi, sorry to bother you, what did the test record for Cc1cc(C)nc(N2CCCC(C(=O)Nc3ccc4c(c3)OCO4)C2)n1 (stereo unspecified) ?
Resp: f

Req: Hi, sorry to bother you, what did the test record for CC1CCCC(NC(=O)CN2CCN(Cc3ccc(Cl)cc3)C2=O)C1C (stereo unspecified) ?
Resp: f

----------
assay: reduction of polyQ htt aggregates in cells – imaging, exon1htt(103Q)mCFP cells, high-content imaging, primary screen (AID 483); conditions: exon1htt(103Q)mCFP cell line, aggregate imaging, at 2 µM; measured here: cell count, toxicity;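 note: compound exposure lasted 3 days before fixation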;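 for nuclei count: percent of the per-plate median nuclei count of sample wells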
REPORTED METRIC: nuclei count (%)
Numbers only, in %.

CCOc1ccc(OCc2ccc(C(=O)Nc3cccc(C)n3)o2)cc1	114
O=C(Nc1nncs1)c1ccccc1NS(=O)(=O)c1cccs1	111
CCOC(=O)c1sc2nc(C)cc(C)c2c1N	111
CCOC(=O)c1ccc(NC(=O)CCc2nc(-c3ccc(C)cc3)no2)cc1	103
CCOC(=O)N1CCN(C(=O)c2ccc(N3C(=O)CCC3=O)cc2)CC1	108
CSc1nnc2n(CCc3ccccc3)c(=O)c3c4c(sc3n12)CCCC4	106

The following compounds each have a reported value; give each one's nuclei count.
1. COC(=O)c1c(-c2ccc(F)cc2)noc1N
2. CCOC(=O)c1[nH]c(C)c(C(=O)Nc2cc(OC)ccc2OC)c1C

Resp:
[106, 2.5]

Req: What value of nuclei count has been reported for the following compound? COc1ccc(N2C(=O)CC(N3CCN(S(=O)(=O)c4c(F)cccc4F)CC3)C2=O)cc1OC (centres undefined)
Resp: 99.7
